- TEST_DESCRIPTION: Pharmacokinetic parameters after i.v. administration in rats
- Type: in vivo
- STUDY_CONDITIONS: in vivo, iv, rat, dose 0.3 mg/kg (SEQ ID NO. 19), 1 mg/kg (SEQ ID NO. 24), read-out: Vdss
Square brackets hold non-standard residues; d marks the D form. Peptide text beside a SMILES is read from it. Phe(4-NO2) = N[C@@H](Cc1ccc([N+](=O)[O-])cc1)C(=O)O; NMeR = CN[C@@H](CCCNC(=N)N)C(=O)O; Sar = CNCC(=O)O
MEASURED_PROPERTY: Vd (L/kg)
Numbers only here, please. The scale is L/kg.

Given item CC(C)C[C@H](NC(=O)[C@H](Cc1ccc([N+](=O)[O-])cc1)NC(=O)CN(C)C(=O)[C@@H](N)Cc1ccc(O)cc1)C(=O)N(C)[C@@H](CCCNC(=N)N)C(=O)N(C)[C@@H](CCCNC(=N)N)C(N)=O [SEQ ID NO. 19, NH2-Tyr-Sar-(4-NO2)Phe-Leu-NMA-NMA-NH2] (H-Y[Sar][Phe(4-NO2)]L[NMeR][NMeR]-NH2) , the value recorded as its Vd is 0.4

* * *

- TEST_TARGET: bovine pancreatic trypsin (Bos taurus)
- Construct: from tissue; host or cells: bovine pancreas
- Sequence (P00760 24-246): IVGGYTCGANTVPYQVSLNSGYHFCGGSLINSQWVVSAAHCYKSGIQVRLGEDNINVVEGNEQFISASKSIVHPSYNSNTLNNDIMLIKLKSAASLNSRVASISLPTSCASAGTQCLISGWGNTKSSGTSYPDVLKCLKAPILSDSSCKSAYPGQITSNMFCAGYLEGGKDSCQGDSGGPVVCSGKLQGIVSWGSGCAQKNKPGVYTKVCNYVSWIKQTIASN
- TEST_DESCRIPTION: Stability in bovine trypsin
- Format: in vitro ADME
- STUDY_CONDITIONS: isolated enzyme trypsin; bovine pancreatic trypsin 2.5 μg/mL, NH4HCO3 buffer pH 8-8.5, 37° C., 100 μM peptide
Square brackets hold non-standard residues; d marks the D form. Peptide text beside a SMILES is read from it. Sar = CNCC(=O)O
MEASURED_PROPERTY: half-life
Answer by giving the amount and then stating its unit.

[[record]]
molecule = "CC(C)C[C@H](NC(=O)[C@H](Cc1ccccc1)NC(=O)CN(C)C(=O)[C@@H](N)Cc1ccc(O)cc1)C(=O)N[C@H](CCCNC(=N)N)C(=O)N[C@@H](CCCNC(=N)N)C(N)=O [SEQ ID NO. 6, NH2-Tyr-Sar-Phe-Leu-DArg-Arg-NH2] (H-Y[Sar]FL[dR]R-NH2)"
reading = "21.1 h"


Here is another molecule to look at.
Given item CC(C)C[C@H](NC(=O)[C@H](Cc1ccccc1)NC(=O)CN(C)C(=O)[C@@H](N)Cc1ccc(O)cc1)C(=O)N[C@H](CCCNC(=N)N)C(=O)N[C@H](CCCNC(=N)N)C(N)=O [SEQ ID NO. 7, NH2-Tyr-Sar-Phe-Leu-DArg-DArg-NH2] (H-Y[Sar]FL[dR][dR]-NH2) , the value recorded as its half-life is 9.78 h

* * *

- TEST_DESCRIPTION: Pharmacokinetic parameters after i.v. administration in rats
- Assay type: in vivo
- STUDY_CONDITIONS: plasma, iv, rat, dose 0.3 mg/kg (SEQ ID NO. 19), 1 mg/kg (SEQ ID NO. 24), read-out: Vdss
Square brackets hold non-standard residues; d marks the D form. Peptide text beside a SMILES is read from it. Phe(4-Cl) = N[C@@H](Cc1ccc(Cl)cc1)C(=O)O; Aoc = NCCCCCCCC(=O)O; Sar = CNCC(=O)O
MEASURED_PROPERTY: Vd (L/kg)
Numbers only here, please. The scale is L/kg.

Given item CC(C)C[C@H](NC(=O)[C@H](Cc1ccc(Cl)cc1)NC(=O)CN(C)C(=O)[C@@H](N)Cc1ccc(O)cc1)C(=O)N[C@@H](CCCNC(=N)N)C(=O)N[C@H](CCCNC(=N)N)C(=O)NCCCCCCCC(N)=O [SEQ ID NO. 24] (H-Y[Sar][Phe(4-Cl)]LR[dR][Aoc]-NH2) , the value recorded as its Vd is 1.7

Origin of values: patent US20240301023A1
